Each entry below carries its reported IC50.
Test system: NCI-H1417 complex spheroids, growth % test/control
Experiment: Anticancer human tumor NCI-H1417 cell line growth inhibition [Asc];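 further: spheroids exposed to compounds for 7 days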
Details: curve of first compound; second compound 0.01 µM
Text: Multicellular complex tumor spheroid response to apoptosis pathway targeting inhibitors Alrizomadlin, Pelcitoclax, and Dasminapant in combination with a variety of drugs and investigational agents in selected tumor cell lines […] Compounds. […] If the clinical Cmax for an agent had not been determined, the highest concentration tested was 10 microM. […]

Consider the following illustrative entries.
• COc1c(OCCCN2CCOCC2)ccc2c3n(c(=NC(=O)c4cnc(N)nc4)nc12)CCN3 + CNC(C)C(=O)NC1CN(S(=O)(=O)c2cccc(S(=O)(=O)N3CCC4CCC(C(=O)NC(c5ccccc5)c5ccccc5)N4C(=O)C(NC(=O)C(C)NC)C3)c2)CCC2CCC(C(=O)NC(c3ccccc3)c3ccccc3)N2C1=O = > 1000 nM
• CCN1C(C(=O)NC23CCC(C(=O)O)(CC2)CC3)C(c2cccc(Cl)c2F)C2(C(=O)Nc3cc(Cl)ccc32)C12CCCCC2 (configuration not stated) + CNC(C)C(=O)NC1CN(S(=O)(=O)c2cccc(S(=O)(=O)N3CCC4CCC(C(=O)NC(c5ccccc5)c5ccccc5)N4C(=O)C(NC(=O)C(C)NC)C3)c2)CCC2CCC(C(=O)NC(c3ccccc3)c3ccccc3)N2C1=O = > 3000 nM
• Cn1ncnc1[C@H]1c2n[nH]c(=O)c3cc(F)cc(c23)N[C@@H]1c1ccc(F)cc1 + CNC(C)C(=O)NC1CN(S(=O)(=O)c2cccc(S(=O)(=O)N3CCC4CCC(C(=O)NC(c5ccccc5)c5ccccc5)N4C(=O)C(NC(=O)C(C)NC)C3)c2)CCC2CCC(C(=O)NC(c3ccccc3)c3ccccc3)N2C1=O = > 100 nM
• Cc1nc(N2CCC3(CC2)COC(C)C3N)c(CO)nc1Sc1ccnc(N)c1Cl (configuration not stated) + CNC(C)C(=O)NC1CN(S(=O)(=O)c2cccc(S(=O)(=O)N3CCC4CCC(C(=O)NC(c5ccccc5)c5ccccc5)N4C(=O)C(NC(=O)C(C)NC)C3)c2)CCC2CCC(C(=O)NC(c3ccccc3)c3ccccc3)N2C1=O = > 3000 nM
• NC1CCC(NC2CC2c2ccccc2)CC1 (configuration not stated) + CNC(C)C(=O)NC1CN(S(=O)(=O)c2cccc(S(=O)(=O)N3CCC4CCC(C(=O)NC(c5ccccc5)c5ccccc5)N4C(=O)C(NC(=O)C(C)NC)C3)c2)CCC2CCC(C(=O)NC(c3ccccc3)c3ccccc3)N2C1=O = > 100 nM

Reported IC50, compound CCN1CCN(Cc2ccc(Nc3ncc(F)c(-c4cc(F)c5nc(C)n(C(C)C)c5c4)n3)nc2)CC1 + CNC(C)C(=O)NC1CN(S(=O)(=O)c2cccc(S(=O)(=O)N3CCC4CCC(C(=O)NC(c5ccccc5)c5ccccc5)N4C(=O)C(NC(=O)C(C)NC)C3)c2)CCC2CCC(C(=O)NC(c3ccccc3)c3ccccc3)N2C1=O : ____
> 1000 nM

Reported IC50, compound O=C(c1cc(Cc2n[nH]c(=O)c3ccccc23)ccc1F)N1CCN(C(=O)C2CC2)CC1 + CNC(C)C(=O)NC1CN(S(=O)(=O)c2cccc(S(=O)(=O)N3CCC4CCC(C(=O)NC(c5ccccc5)c5ccccc5)N4C(=O)C(NC(=O)C(C)NC)C3)c2)CCC2CCC(C(=O)NC(c3ccccc3)c3ccccc3)N2C1=O : ____
5780 nM

###

Test system: NCI-H1417 complex spheroids, growth % test/control
Assay: Anticancer human tumor NCI-H1417 cell line growth inhibition [Asc]; active = viability on the fitted dose curve at most 10% of control; inactive = the rest;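 further: spheroids exposed to compounds for 7 days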
Conditions: second compound 3 µM; first compound 10 µM
The reply should be one of these categories: true for active, false for inactive

Worked cases, answers included:
- C=CC(=O)N1CCN(c2nc(=O)n(-c3c(C)ccnc3C(C)C)c3nc(-c4c(O)cccc4F)c(F)cc23)C(C)C1 (centres undefined) + CCN1C(C(=O)NC23CCC(C(=O)O)(CC2)CC3)C(c2cccc(Cl)c2F)C2(C(=O)Nc3cc(Cl)ccc32)C12CCCCC2: false
- C#Cc1c(F)ccc2cc(O)cc(-c3ncc4c(N5CC6CCC(C5)N6)nc(OCC56CCCN5CC(F)C6)nc4c3F)c12 (centres undefined) + CCN1C(C(=O)NC23CCC(C(=O)O)(CC2)CC3)C(c2cccc(Cl)c2F)C2(C(=O)Nc3cc(Cl)ccc32)C12CCCCC2: false
- C=C(F)C(=O)N1CCN(c2nc(OCC3CCCN3C)nc3c2CCN(c2cccc4cccc(Cl)c24)C3)CC1CC#N (centres undefined) + CCN1C(C(=O)NC23CCC(C(=O)O)(CC2)CC3)C(c2cccc(Cl)c2F)C2(C(=O)Nc3cc(Cl)ccc32)C12CCCCC2: true

Hey, what did the test say about O=C(c1cc(Cc2n[nH]c(=O)c3ccccc23)ccc1F)N1CCN(C(=O)C2CC2)CC1 + CCN1C(C(=O)NC23CCC(C(=O)O)(CC2)CC3)C(c2cccc(Cl)c2F)C2(C(=O)Nc3cc(Cl)ccc32)C12CCCCC2 ?
false

###

Test system: NCI-H1417 complex spheroids, growth % test/control
Experiment: Anticancer human tumor NCI-H1417 cell line growth inhibition [Asc];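 further: spheroids exposed to compounds for 7 days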;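 on viability, T/C: 100% = DMSO vehicle control wells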
Conditions: second compound 0.316 µM; first compound 0.0316 µM; stronger effect = lower value
Description: Multicellular complex tumor spheroid response to apoptosis pathway targeting inhibitors Alrizomadlin, Pelcitoclax, and Dasminapant in combination with a variety of drugs and investigational agents in selected tumor cell lines […] Compounds. […] If the clinical Cmax for an agent had not been determined, the highest concentration tested was 10 microM. […]
Each entry below carries its reported viability, T/C.
Respond numerically; units are % and should not be typed.

• C#Cc1c(F)ccc2cc(O)cc(-c3ncc4c(N5CC6CCC(C5)N6)nc(OCC56CCCN5CC(F)C6)nc4c3F)c12 (configuration not stated) + Cc1c(S(C)(=O)=O)c(-c2cc(F)cc(N3CCN(c4ccc(NS(=O)(=O)c5ccc(NC(CCN6CCC(C(=O)OCCCP(=O)(O)O)CC6)CSc6ccccc6)c(S(=O)(=O)C(F)(F)F)c5)cc4)CC3)c2)c(-c2ccc(Cl)cc2)n1C(C)C = 42.6

Next compound, viability, T/C to be filled in.
Reported viability, T/C, compound C=CC(=O)N1CCN(c2nc(=O)n(-c3c(C)ccnc3C(C)C)c3nc(-c4c(O)cccc4F)c(F)cc23)C(C)C1 (configuration not stated) + CNC(C)C(=O)NC1CN(S(=O)(=O)c2cccc(S(=O)(=O)N3CCC4CCC(C(=O)NC(c5ccccc5)c5ccccc5)N4C(=O)C(NC(=O)C(C)NC)C3)c2)CCC2CCC(C(=O)NC(c3ccccc3)c3ccccc3)N2C1=O : ____
84.6

###

System: NCI-H1417 complex spheroids, growth % test/control
Experiment: Anticancer human tumor NCI-H1417 cell line growth inhibition [Asc];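 further: spheroids exposed to compounds for 7 days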;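 on viability, T/C: 100% = DMSO vehicle control wells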
Details: second compound 0.316 µM; first compound 0.00316 µM; stronger effect = lower value
Description: Multicellular complex tumor spheroid response to apoptosis pathway targeting inhibitors Alrizomadlin, Pelcitoclax, and Dasminapant in combination with a variety of drugs and investigational agents in selected tumor cell lines […] Compounds. […] If the clinical Cmax for an agent had not been determined, the highest concentration tested was 10 microM. […]
Outcome Measure: viability, T/C (%)
Respond numerically; units are % and should not be typed.

Consider the following illustrative entries.
* Cn1ncnc1[C@H]1c2n[nH]c(=O)c3cc(F)cc(c23)N[C@@H]1c1ccc(F)cc1 + CNC(C)C(=O)NC1CN(S(=O)(=O)c2cccc(S(=O)(=O)N3CCC4CCC(C(=O)NC(c5ccccc5)c5ccccc5)N4C(=O)C(NC(=O)C(C)NC)C3)c2)CCC2CCC(C(=O)NC(c3ccccc3)c3ccccc3)N2C1=O | 102
* CNC(C)C(=O)NC1CN(S(=O)(=O)c2cccc(S(=O)(=O)N3CCC4CCC(C(=O)NC(c5ccccc5)c5ccccc5)N4C(=O)C(NC(=O)C(C)NC)C3)c2)CCC2CCC(C(=O)NC(c3ccccc3)c3ccccc3)N2C1=O (stereo not drawn) + Cc1c(S(C)(=O)=O)c(-c2cc(F)cc(N3CCN(c4ccc(NS(=O)(=O)c5ccc(NC(CCN6CCC(C(=O)OCCCP(=O)(O)O)CC6)CSc6ccccc6)c(S(=O)(=O)C(F)(F)F)c5)cc4)CC3)c2)c(-c2ccc(Cl)cc2)n1C(C)C | 42.4

Next compound, viability, T/C to be filled in.
Give recorded viability, T/C with NCI-H1417 complex spheroids, growth % test/control for the following compound: CCN1CCN(Cc2ccc(Nc3ncc(F)c(-c4cc(F)c5nc(C)n(C(C)C)c5c4)n3)nc2)CC1 + Cc1c(S(C)(=O)=O)c(-c2cc(F)cc(N3CCN(c4ccc(NS(=O)(=O)c5ccc(NC(CCN6CCC(C(=O)OCCCP(=O)(O)O)CC6)CSc6ccccc6)c(S(=O)(=O)C(F)(F)F)c5)cc4)CC3)c2)c(-c2ccc(Cl)cc2)n1C(C)C
47.8

###

Test system: NCI-H1417 complex spheroids, growth % test/control
Experiment: Anticancer human tumor NCI-H1417 cell line growth inhibition [Asc];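 further: spheroids exposed to compounds for 7 days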;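 on viability, T/C: 100% = DMSO vehicle control wells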
Details: second compound 0.01 µM; first compound 1 µM; stronger effect = lower value
Outcome Measure: viability, T/C

- C#Cc1c(F)ccc2cc(O)cc(-c3ncc4c(N5CC6CCC(C5)N6)nc(OCC56CCCN5CC(F)C6)nc4c3F)c12 (configuration not stated) + CNC(C)C(=O)NC1CN(S(=O)(=O)c2cccc(S(=O)(=O)N3CCC4CCC(C(=O)NC(c5ccccc5)c5ccccc5)N4C(=O)C(NC(=O)C(C)NC)C3)c2)CCC2CCC(C(=O)NC(c3ccccc3)c3ccccc3)N2C1=O: 98.1%

Give recorded viability, T/C with NCI-H1417 complex spheroids, growth % test/control for the following compound: C=CC(=O)N1CCN(c2nc(=O)n(-c3c(C)ccnc3C(C)C)c3nc(-c4c(O)cccc4F)c(F)cc23)C(C)C1 (configuration not stated) + CNC(C)C(=O)NC1CN(S(=O)(=O)c2cccc(S(=O)(=O)N3CCC4CCC(C(=O)NC(c5ccccc5)c5ccccc5)N4C(=O)C(NC(=O)C(C)NC)C3)c2)CCC2CCC(C(=O)NC(c3ccccc3)c3ccccc3)N2C1=O
96.2%
